# assay name: pharmacokinetics in female CD1 mice, plasma by UPLC-MS/MS
# Assay type: in vivo
# reported conditions: mouse, plasma, iv; I.V. 1 mg/kg, samples collected without added NaF; read-out: time of peak plasma concentration (converted)
measured parameter: Tmax (min)

| molecule | unit name | recorded measurement |
| --- | --- | --- |
| CCC(=C(c1ccc(O)cc1)c1ccc(OCCN(C)C(=O)COCCOCCNC(=O)Cc2ccc3c(c2)CN(C2CCC(=O)NC2=O)C3=O)cc1)c1ccccc1 (stereo not shown) | min | 5 |

* * *

# assay name: pharmacokinetics in female CD1 mice, plasma by UPLC-MS/MS
# Type: in vivo
# reported conditions: mouse, plasma, po, 10 mg/kg, plasma, TABLE 7, titled PO pk (10 mg/kg), 60 minutes, individual mice; read-out: Concentration ENDX PROTAC 9

| compound | concentration at 1 h [ng/mL] |
| --- | --- |
| CCC(=C(c1ccc(O)cc1)c1ccc(OCCN(C)C(=O)COCCOCCNC(=O)Cc2ccc3c(c2)CN(C2CCC(=O)NC2=O)C3=O)cc1)c1ccccc1 (stereo not shown) [TC-Pr-009] | 131 |

* * *

# assay name: pharmacokinetics in female CD1 mice, plasma by UPLC-MS/MS
# Assay type: in vivo
# reported conditions: mouse, plasma, ip, 4 mg/kg, I.P. 4 mg/kg; read-out: peak plasma concentration
# Method: ENDX PROTAC 7 and PROTAC 9 pharmacokinetics were characterized in female CD1 mice. Blood samples were collected from mice anesthetized under isoflurane via retro-orbital eye bleed into tubes containing EDTA and immediately chilled on ice. […] For IV dosing, ENDX PROTAC 9 was dissolved in 10% DMSO, 10% PEG 400, and 80% normal saline for a final concentration of 0.2 mg/mL ENDX PROTAC 9 for the 1 mg/kg IV doses. […] Plasma concentrations of ENDX PROTAC 7 and 9 were measured using UPLC-MS/MS.

| compound | Cmax |
| --- | --- |
| CCC(=C(c1ccc(O)cc1)c1ccc(OCCN(C)C(=O)COCCOCCNC(=O)Cc2ccc3c(c2)CN(C2CCC(=O)NC2=O)C3=O)cc1)c1ccccc1 (stereo not shown) | 135 ng/mL |

* * *

# assay name: pharmacokinetics in female CD1 mice, plasma by UPLC-MS/MS
# Format: in vivo
# reported conditions: mouse, plasma; oral 10 mg/kg; read-out: time of peak plasma concentration (converted)

| compound | unit name | Tmax |
| --- | --- | --- |
| CCC(=C(c1ccc(O)cc1)c1ccc(OCCN(C)C(=O)COCCOCCNC(=O)Cc2ccc3c(c2)CN(C2CCC(=O)NC2=O)C3=O)cc1)c1ccccc1 (stereo not shown) [TC-Pr-009] | h | 1 |

* * *

# assay name: pharmacokinetics in female CD1 mice, plasma by UPLC-MS/MS
# Format: in vivo
# reported conditions: mouse, plasma, po, 10 mg/kg, plasma, TABLE 7, titled PO pk (10 mg/kg), 30 minutes, individual mice; read-out: Concentration ENDX PROTAC 9

| compound | unit name | concentration at 0.5 h |
| --- | --- | --- |
| CCC(=C(c1ccc(O)cc1)c1ccc(OCCN(C)C(=O)COCCOCCNC(=O)Cc2ccc3c(c2)CN(C2CCC(=O)NC2=O)C3=O)cc1)c1ccccc1 (stereo not shown) [TC-Pr-009] | ng/mL | 166 |

Values were extracted from patent EP4817688A2.
